meta.source: patent US5541163A

target-entity: human renin (Homo sapiens, UniProt P00797)
Construct: A human plasma pool is used as the source of both the substrate (angiotensinogen) and the enzyme (renin)
Sequence (P00797 67-406): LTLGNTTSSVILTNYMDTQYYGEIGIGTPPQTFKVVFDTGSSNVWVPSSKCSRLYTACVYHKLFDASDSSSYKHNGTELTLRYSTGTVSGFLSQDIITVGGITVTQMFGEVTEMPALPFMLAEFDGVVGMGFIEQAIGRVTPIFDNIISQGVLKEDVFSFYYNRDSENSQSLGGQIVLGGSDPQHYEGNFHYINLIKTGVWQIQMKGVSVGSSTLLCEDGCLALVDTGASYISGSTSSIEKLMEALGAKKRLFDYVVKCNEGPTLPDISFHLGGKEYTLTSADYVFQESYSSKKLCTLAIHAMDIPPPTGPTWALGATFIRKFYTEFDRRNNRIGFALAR
test-description: Plasma renin assay (inhibition of human renin, angiotensin I by RIA)
measurement-setup: human plasma pool, pH 6.0, 2 h incubation at 37°
Protocol: The assay is performed as follows: The test compound (i.e. the inhibitor) is dissolved in dimethylsulfoxide (1 mM stock solution) and diluted with an aqueous buffer solution of 270 mM 2-(N-morpholino)ethanesulfonic acid and 1% human serum albumin (pH 5.85, also containing dimercaprol and 8-hydroxyquinoline sulfate in accordance with the instructions of the RIA kit noted below) to give an assay mixture in which the final dimethylsulfoxide content is 1% (v/v). […]
# maps each entry to its IC50
Give the number; nM is assumed, so skip it.

Consider the worked cases shown below.
CC(C)C[C@H](O)[C@H](O)[C@H](CC1CCCCC1)NC(=O)[C@@H](CC(=O)N(CC(=O)N(C)C)Cc1cccc2ccccc12)CC1CC1 [Compound 9]: 66
CC(C)C[C@H](O)[C@H](O)[C@H](CC1CCCCC1)NC(=O)[C@@H](CC(=O)N(CC(=O)N(C)CCc1ccccn1)Cc1cccs1)Cc1csc(N)n1 [Compound 72]: 2
CC(C)C[C@H](O)[C@H](O)[C@H](CC1CCCCC1)NC(=O)[C@@H](CC(=O)N(CC(=O)N(C)C)CC1CCCCC1)Cc1ccccn1 [Compound 68]: 4
CC(C)C[C@H](O)[C@H](O)[C@H](CC1CCCCC1)NC(=O)[C@@H](CC(=O)N(CC(=O)N(C)C)CC1CCCCC1)Cc1cccnc1 [Compound 58]: 10
CC(C)C[C@H](O)[C@H](O)[C@H](CC1CCCCC1)NC(=O)[C@@H](CC(=O)N(CC(=O)N(C)CCc1ccccn1)Cc1ccccc1)Cc1csc(N)n1 [Compound 57]: 1

Next compound, please.
-- ask Please give the documented IC50 of CC(C)C[C@H](O)[C@H](O)[C@H](CC1CCCCC1)NC(=O)[C@@H](CC(=O)N(CC(=O)N(C)C)CC(C)(C)c1ccccc1)CC1CC1 [Compound 21]
-- reply 150
